Test system: K-562 leukemia
Test: NCI-60 one-dose screen, 48 h (100 = growth as untreated, 0 = no growth, -100 = all killed)
Settings: 10 µM unless noted
The panel holds about 83,000 compounds, 20% with a hit somewhere; the sample as a whole holds those more often. Activity calls are given as the source filed them. How the source made its calls: active means growth percent below 10; inactive means the rest.
Kindly supply the reported growth values for the records listed here.

Give growth for each listed item.
1. CC(C)(C)c1ccc(C(=O)Nc2sc3c(c2C(N)=O)CCC(O)C3)cc1 (stereo not drawn)
2. O=S(=O)(Nc1ccc2c(c1)OCO2)c1ccc(-c2cnc(C3CC3)o2)cc1
3. COc1cc2oc(-c3cccc(N)c3)cc(=O)c2c(OC)c1OC
4. COc1ccc(NC(=O)CSc2nnc(-c3ccc4nc(-c5ccc(OC)c(OC)c5)[nH]c4c3)o2)cc1OC
5. Cc1ccc(-c2nnc(SCc3ccc(O)c4ncccc34)o2)cc1

6.74% (active)
12.3% (inactive)
107% (inactive)
108% (inactive)
11.3% (inactive)
